Test: DRUGMATRIX: ATPase, Na+/K+ enzyme inhibition (substrate: ATP)
Format: tissue-based, Sus scrofa, Heart
Settings: Not Active = under 50% inhibition at 10 µM
observation.type: IC50

Below: 5 compounds and their reported IC50.
compound	IC50
COc1cc(C(=O)NC2CCCNC2)cc(OC)c1OC (configuration not stated) [TROXIPIDE]	Not Active
C[C@]12CCC(=O)C=C1CC[C@@H]1[C@@H]2C(=O)C[C@@]2(C)[C@H]1CC[C@]2(O)C(=O)CO [CORTISONE]	Not Active
C=C1[C@@H]2CCC3[C@@](CC[C@@H]4[C@H](C(=O)O)C[C@@H](O[C@@H]5O[C@H](CO)[C@@H](OS(=O)(=O)[O-])[C@H](OS(=O)(=O)[O-])[C@H]5OC(=O)CC(C)C)C[C@@]34C)(C2)[C@@H]1O.[K+].[K+] (some centres not stated) [ATRACTYLOSIDE]	Not Active
NNc1ccccc1 [PHENYLHYDRAZINE]	Not Active
COC1=CC(=O)C[C@@H](C)[C@]12Oc1c(Cl)c(OC)cc(OC)c1C2=O [GRISEOFULVIN]	Not Active

Any idea what IC50 was measured for CN(C)[C@@H]1C(O)=C(C(N)=O)C(=O)[C@@]2(O)C(O)=C3C(=O)c4c(O)cccc4[C@@](C)(O)[C@H]3C[C@@H]12 [TETRACYCLINE] ?
Not Active

Any idea what IC50 was measured for NS(=O)(=O)c1cc2c(cc1Cl)NCNS2(=O)=O [HYDROCHLOROTHIAZIDE] ?
Not Active
